- ASSAYED_SYSTEM: Mouse ACVR2A (mouse, UniProt P27038 20-135, limits assumed); also: test concentration or dose not given here
- Sequence (P27038 20-135 limits assumed): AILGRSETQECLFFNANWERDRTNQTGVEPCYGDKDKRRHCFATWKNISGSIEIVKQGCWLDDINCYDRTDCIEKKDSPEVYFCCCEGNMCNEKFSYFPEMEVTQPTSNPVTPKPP
- PROTOCOL_SUMMARY: ELISA
Here, each record is paired with measured optical density data.
Numbers only; they are read as OD.

Use these answered entries as a reference point.
* 373_G12 (antibody, V domains shown) VH: EVQLLESGGGLVQPGGSLRLSCAASGFTFSSYSMNWVRQAPGKGLEWVSNINYNGGYTSYADSVKGRFTISRDNSKNTLYLQMNSLRAEDTAVYYCARSANWHDTALDYWGQGTLVTVSS VL: DIQMTQSPSSLSASVGDRVTITCRASQSILSYLNWYQQKPGKAPKLLIYATTSLASGVPSRFSGSGSGTDFTLTISSLQPEDFATYYCQQSYNSPLTFGGGTKVEIK | 3.29
* 371_D09 (antibody, V domains shown) VH: EVQLLESGGGLVQPGGSLRLSCAASGFTFSSYSMNWVRQAPGKGLEWVSNINYNSGYTGYADSVKGRFTISRDNSKNTLYLQMNSLRAEDTAVYYCARSANWHDTALDYWGQGTLVTVSS VL: DIQMTQSPSSLSASVGDRVTITCRASQSILTYLNWYQQKPGKAPKLVIYAATSRASGVPSRFSGSGSGTDFTLTISSLQPEDFATYYCQQSYNNPLTFGGGTKVEIK | 2.94

From here, focus on the item given below.
Form field: reported optical density of 368_D04 (antibody, V domains shown) VH: EVQLLESGGGLVQPGGSLRLSCAASGFTFSSYGMNWVRQAPGKGLEWVSGINYNGGYKSYADSVKGRFTISRDNSKNTLYLQMNSLRAEDTAVYYCARSANWHDTALDYWGQGTLVTVSS VL: DIQMTQSPSSLSASVGDRVTITCRASQSISTYVNWYQQKPGKAPKLVIYAVTSRHSGVPSRFSGSGSGTDFTLTISSLQPEDFATYYCQQSYDSPLTFGGGTKVEIK
2.7
